Stability listing for selected compounds.
# measurement_notes: Metabolic stability of the compound in carboxylesterase 1 knockout mouse liver assessed as parent compound remaining at 10 uM measured after 1 hr in by UPLC analysis
# Type: ADME, tissue-based
metric_name: Stability (%)

- compound: "CCC1CCCC(CC)N1C(=O)Oc1c(OC)cc(-c2nc(-c3ccccc3)c(-c3cccs3)[nH]2)cc1OC (configuration not stated)"
  result_number: 51
- compound: "CCCCCCCNC(=O)Oc1c(OC)cc(-c2nc(-c3ccccc3)c(-c3cccs3)[nH]2)cc1OC"
  result_number: 97
- compound: "COc1cc(-c2nc(-c3ccccc3)c(-c3cccs3)[nH]2)cc(OC)c1OC(=O)C(C)(C)C"
  result_number: 0
- compound: "COc1cc(-c2nc(-c3ccccc3)c(-c3cccs3)[nH]2)cc(OC)c1OC(=O)OC(OC(=O)C(C)(C)C)c1ccccc1 (configuration not stated)"
  result_number: 80
- compound: "COc1cc(-c2nc(-c3ccccc3)c(-c3cccs3)[nH]2)cc(OC)c1OC(C)=O"
  result_number: 0
- compound: "CCCCCC(=O)Oc1c(OC)cc(-c2nc(-c3ccccc3)c(-c3cccs3)[nH]2)cc1OC"
  result_number: 1
- compound: "CCC1CC(N2CCCCC2)CC(CC)N1C(=O)Oc1c(OC)cc(-c2nc(-c3ccccc3)c(-c3cccs3)[nH]2)cc1OC (configuration not stated)"
  result_number: 100
- compound: "COc1cc(-c2nc(-c3ccccc3)c(-c3cccs3)[nH]2)cc(OC)c1OC(=O)N1C2CCC1CC(N1CCCCC1)C2 (configuration not stated)"
  result_number: 78
- compound: "COc1cc(-c2nc(-c3ccccc3)c(-c3cccs3)[nH]2)cc(OC)c1OC(=O)N(C)C"
  result_number: 100
- compound: "CCCCCN(C)C(=O)Oc1c(OC)cc(-c2nc(-c3ccccc3)c(-c3cccs3)[nH]2)cc1OC"
  result_number: 85
- compound: "COc1cc(-c2nc(-c3cccs3)c(-c3ccccc3)[nH]2)cc(OC)c1O"
  result_number: 98
- compound: "COc1cc(-c2nc(-c3ccccc3)c(-c3cccs3)[nH]2)cc(OC)c1OC(=O)N1C2CCCC1CC2"
  result_number: 95
- compound: "COc1cc(-c2nc(-c3ccccc3)c(-c3cccs3)[nH]2)cc(OC)c1OCOP(=O)(O)OCOC(=O)OC(C)C"
  result_number: 11
- compound: "CCCCCNC(=O)Oc1c(OC)cc(-c2nc(-c3ccccc3)c(-c3cccs3)[nH]2)cc1OC"
  result_number: 83
- compound: "COc1cc(-c2nc(-c3ccccc3)c(-c3cccs3)[nH]2)cc(OC)c1OCOP(=O)(O)O"
  result_number: 21
- compound: "COc1cc(-c2nc(-c3ccccc3)c(-c3cccs3)[nH]2)cc(OC)c1OC(=O)C1=CN(C)C=CC1"
  result_number: 22
- compound: "COc1cc(-c2nc(-c3ccccc3)c(-c3cccs3)[nH]2)cc(OC)c1OP(=O)(O)O"
  result_number: 55
